Test details: qHTS assay to identify small molecule antagonists of the estrogen related receptor (ERR) signaling pathway from Tox21 library - cell viability counter screen (AID 1224834); further: nearly all actives have a fitted effect of over 30% in size; further: potency means the concentration at half of the fitted maximal effect
Protocol conditions: ERR reporter cells viability, CellTiter-Fluor, 17.5 h; series mostly up to 92.4 µM
Records with an inconclusive call do not appear. Calls of active or inactive are those of the source. The call rests on the fitted dose curve; in most records, active means well fitted cell-killing curve with a large enough effect in the repeat runs; inconclusive means weak or mixed curves; inactive means flat fitted curve, though single readings scatter.
Property label: Potency

Recorded Potency, per entry:
# Compound, Potency
measured = [
    ("Nc1ccc(S(N)(=O)=O)cc1", "inactive"),
    ("C=C1CC[C@H](O)C/C1=C\\C=C1/CCC[C@]2(C)[C@@H]([C@H](C)CCCC(C)C)CC[C@@H]12", "54 µM (active)"),
    ("CCCCC(CC)C(=O)O (centres undefined)", "inactive"),
    ("CN(N=O)C(=O)N[C@@H]1[C@@H](O)[C@H](O)[C@@H](CO)O[C@@H]1O", "inactive"),
]

Lookup: Give its Potency value. Item: C=C(C)C(=O)OCC(C)O (centres undefined)
Found: inactive

Lookup: Give its Potency value. Item: C/C=C/C=C/C(=O)O
Found: inactive

Lookup: Give its Potency value. Item: Cc1cccc(C)c1
Found: inactive

Lookup: Give its Potency value. Item: C[C@](N)(Cc1ccc(O)c(O)c1)C(=O)O
Found: inactive

Lookup: Give its Potency value. Item: CCCCC1(COC(=O)CCC(=O)O)C(=O)N(c2ccccc2)N(c2ccccc2)C1=O
Found: inactive

Lookup: Give its Potency value. Item: O=C(Nc1ncc([N+](=O)[O-])s1)c1cccs1
Found: 13.3 µM (active)

Lookup: Give its Potency value. Item: COc1ccc2c(c1)c(CC(=O)O)c(C)n2C(=O)c1ccc(Cl)cc1
Found: inactive

Lookup: Give its Potency value. Item: CN(C)C(=O)Nc1ccc(Cl)c(Cl)c1
Found: inactive

Lookup: Give its Potency value. Item: COc1cccc(O)c1O
Found: 63.5 µM (active)

Lookup: Give its Potency value. Item: CCCc1cc(=O)[nH]c(=S)[nH]1
Found: inactive

Lookup: Give its Potency value. Item: CCCC[P+](CCCC)(CCCC)CCCC
Found: inactive

Lookup: Give its Potency value. Item: O=CC(=O)c1ccccc1
Found: inactive

Lookup: Give its Potency value. Item: CN(C)CCOC(C)(c1ccccc1)c1ccccn1 (centres undefined)
Found: inactive

Lookup: Give its Potency value. Item: CN[C@H]1CC[C@@H](c2ccc(Cl)c(Cl)c2)c2ccccc21
Found: 29.8 µM (active)

Lookup: Give its Potency value. Item: NS(=O)(=O)O
Found: inactive
